assay: Inhibitory activity against neuronal nitric oxide synthase
Peptide text beside a SMILES is read from it.
Rule for this label: 1 means Ki is less than 600 nM; -1 means Ki is at least 600 nM.

{"columns": ["molecule", "className"],
 "data": [
  ["NCc1cccc(NC[C@@H](N)CCC/N=C(\\N)N[N+](=O)[O-])c1", 1]
]}

Quick check: does NCCCC[C@@H](N)C(=O)N[C@H](CCC/N=C(/N)N[N+](=O)[O-])C(N)=O (HELM PEPTIDE1{[dK].[N=C(NCCC[C@@H](N[*:1])C(=O)[*:2])N[N+](=O)[O-]].[am]}$$$$V2.0) have Ki under 600 nM?
-1

Then this molecule: NCCCC[C@H](N)C(=O)N[C@H](CCC/N=C(\N)N[N+](=O)[O-])C(N)=O (HELM PEPTIDE1{K.[N=C(NCCC[C@@H](N[*:1])C(=O)[*:2])N[N+](=O)[O-]].[am]}$$$$V2.0)
-1

Quick one: NC[C@H](NC(=O)[C@@H](N)CCC/N=C(\N)N[N+](=O)[O-])C(N)=O (HELM PEPTIDE1{[N=C(NCCC[C@H](N)C(=O)[*:2])N[N+](=O)[O-]].[NC[C@H](N[*:1])C(=O)[*:2]].[am]}$$$$V2.0)
1

Another molecule to check: NCc1ccccc1NC[C@@H](N)CCC/N=C(\N)N[N+](=O)[O-]
-1

Repeat for the following molecule: N/C(=N/CCC[C@H](N)CNc1cccnc1)N[N+](=O)[O-]
1
